Target: HLA-A*80:01
Assay: IEDB peptide-MHC binding, purified MHC/competitive/fluorescence; filed as Kd, often an IC50 or EC50 that approximates it; bounds were set here for any values at or beyond the usual limits of such assays
Settings: source organism: Zaire ebolavirus

[
  {
    "seq text": "SLTDRELLL",
    "Kd": "≥ 20 µM"
  }
]

---

Molecular target: HLA-B*15:42
Test: IEDB peptide-MHC binding, purified MHC/competitive/fluorescence; filed as Kd, often an IC50 or EC50 that approximates it; bounds were set here for any values at or beyond the usual limits of such assays
Conditions: source organism: Mycobacterium tuberculosis variant bovis BCG str. Pasteur 1173P2
pKd: −log10 of the molar value.

[
  {
    "seq text": "HPVTATISF",
    "pKd": "≤ 5.30"
  }
]
